# assayedSystem: Torsin-1A (Homo sapiens)
# procedureDetails: TOR1A wild-type binding on microarray – cell lysate, small-molecule microarray, lysate, 635/667 nm, primary screen (AID 1149)
# reportedConditions: COS7 hTOR1A-WT lysate, 635 nm fluorescence, higher = more signal

{"compound": "C=CCNC(=O)[C@H]1[C@@H]2C(=O)O[C@@H](c3ccccc3)[C@@H](c3ccccc3)N2[C@@H](c2ccc(O)cc2)[C@]12C(=O)Nc1ccc(C#Cc3ccc(OC)cc3)cc12", "composite z-score": 0.11}
{"compound": "Cc1ccc(F)cc1S(=O)(=O)N[C@@H]1CCN(Cc2ccc(C(F)(F)F)cc2)C1", "composite z-score": -0.181}
{"compound": "COC(=O)C(CC#Cc1ccc2c(c1)[C@]1(C(=O)N2)[C@H](C(=O)N2CCCCCCC2)[C@H]2C(=O)O[C@H](c3ccccc3)[C@H](c3ccccc3)N2[C@@H]1c1ccccc1OCCO)C(=O)OC", "composite z-score": 3.84}
{"compound": "COCCOC(=O)N1C(=O)[C@@]2(c3cc(C#CCCO)ccc31)[C@H](c1ccc(O)cc1)N1[C@H](c3ccccc3)[C@H](c3ccccc3)OC(=O)[C@H]1[C@@H]2C(=O)N1CCCCCCC1", "composite z-score": 0.705}
{"compound": "O=C1C2C=CC(C(O)c3ccccn3)N(Nc3ccccc3F)C2C(=O)N1c1ccccc1 (stereo unspecified)", "composite z-score": 0.456}
{"compound": "CN(C)CCCC[C@@H]1NC(=O)[C@@H]2C[C@H](C(=O)NCc3ccc(F)cc3)[C@H](c3cccc(OCCO)c3)N2C1=O", "composite z-score": 1.27}
